The entries below are paired with their reported DC50.
- tested target: TYK2 (Homo sapiens, UniProt P29597)
- Construct: Degradation of TYK2 in cells was quantitatively measured using Meso Scale Discovery (MSD) technology; endogenous in cells; host or cells: OCI-LY10
- Sequence (P29597 whole entry): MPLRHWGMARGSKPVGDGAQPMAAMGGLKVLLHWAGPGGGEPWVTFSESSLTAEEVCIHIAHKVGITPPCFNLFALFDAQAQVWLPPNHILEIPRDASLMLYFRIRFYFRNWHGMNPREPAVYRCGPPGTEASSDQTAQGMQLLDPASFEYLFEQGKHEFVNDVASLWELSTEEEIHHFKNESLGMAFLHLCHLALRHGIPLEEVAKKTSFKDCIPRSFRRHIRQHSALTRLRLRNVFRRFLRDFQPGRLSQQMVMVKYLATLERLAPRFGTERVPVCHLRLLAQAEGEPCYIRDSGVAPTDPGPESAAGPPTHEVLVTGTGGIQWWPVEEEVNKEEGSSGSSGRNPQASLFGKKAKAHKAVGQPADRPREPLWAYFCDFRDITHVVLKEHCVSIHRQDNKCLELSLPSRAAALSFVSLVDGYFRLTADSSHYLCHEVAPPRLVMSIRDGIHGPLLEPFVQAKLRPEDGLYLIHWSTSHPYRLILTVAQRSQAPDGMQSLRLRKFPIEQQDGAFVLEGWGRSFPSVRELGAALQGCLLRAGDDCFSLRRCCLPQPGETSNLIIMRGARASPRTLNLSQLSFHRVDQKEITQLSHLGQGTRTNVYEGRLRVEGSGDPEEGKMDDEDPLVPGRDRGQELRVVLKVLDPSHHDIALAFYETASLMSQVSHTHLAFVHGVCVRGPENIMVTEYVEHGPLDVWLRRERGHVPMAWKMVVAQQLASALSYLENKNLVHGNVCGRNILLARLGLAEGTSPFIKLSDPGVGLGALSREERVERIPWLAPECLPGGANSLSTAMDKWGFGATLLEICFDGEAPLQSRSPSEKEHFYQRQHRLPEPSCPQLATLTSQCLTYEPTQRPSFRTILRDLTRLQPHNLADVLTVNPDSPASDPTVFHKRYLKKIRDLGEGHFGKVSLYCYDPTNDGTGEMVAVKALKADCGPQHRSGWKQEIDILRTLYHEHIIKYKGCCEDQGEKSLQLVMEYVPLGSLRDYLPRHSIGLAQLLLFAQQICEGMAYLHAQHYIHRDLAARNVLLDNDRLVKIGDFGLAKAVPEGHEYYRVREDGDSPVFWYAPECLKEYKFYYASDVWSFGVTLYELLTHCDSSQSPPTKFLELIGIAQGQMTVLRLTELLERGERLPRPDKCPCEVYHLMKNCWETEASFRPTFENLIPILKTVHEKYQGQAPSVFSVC
- experiment notes: TYK2 MSD degradation in OCI-LY10 cells
- Format: cell-based
- assay conditions: TYK2 degradation in OCI-LY10 cells, 4 to 24 hours incubation, read-out: TYK2 MSD OCI-LY10 Rel-DC50

molecule	tested target	DC50
CNc1cc(N2CCc3c(-c4ncc(CN5CC6(CCN(C(=O)c7cc(N8CCC(=O)NC8=O)c(C)cn7)CC6(F)F)C5)cc4F)cc(F)cc32)nn2c(C(=O)N[C@@H]3C[C@@H]3F)cnc12 [I-971]	TYK2 (Homo sapiens, UniProt P29597)	< 1 nM
CNc1cc(N2CCc3c(CN4CC[C@@H](N5CCC6(CC5)CN(C(=O)c5cc(Cl)c(C)c(N7CCC(=O)NC7=O)c5)C6)C(F)(F)C4)cccc32)nn2c(C(=O)N[C@@H]3CC[C@H]3OC)cnc12 [I-1141]	TYK2 (Homo sapiens, UniProt P29597)	< 1 nM
CNc1cc(N2CCc3c(-c4ncc(CN5CC6(CCN(C(=O)c7cc(C)c(C)c(N8CCC(=O)NC8=O)c7)CC6(F)F)C5)cc4F)cccc32)nn2c(C(=O)NC3CCC3OC)cnc12 (centres unmarked) [I-993]	TYK2 (Homo sapiens, UniProt P29597)	< 1 nM
CNc1cc(N2CCc3c(N4CCN(CC5CCC6(CC5)CCN(c5ccc7c(c5)n(C)c(=O)n7C5CCC(=O)NC5=O)CC6)CC4)cccc32)nn2c(C(=O)NC3CC3)cnc12 (centres unmarked) [I-39]	TYK2 (Homo sapiens, UniProt P29597)	< 10 nM
CNc1cc(N2CCc3c(-c4ncc(CN5CC6(CCN(C(=O)c7cc(N8CCC(=O)NC8=O)c(Cl)c(C)n7)CC6(F)F)C5)cc4F)cc(F)cc32)nn2c(C(=O)N[C@@H]3CC[C@H]3OC)cnc12 [I-1151]	TYK2 (Homo sapiens, UniProt P29597)	< 1 nM
CNc1cc(N2CCc3c(-c4ccc(CN5CCC6(CC5)CCN(C(=O)c5ccc(Cl)c(N7CCC(=O)NC7=O)c5)C6)cn4)cccc32)nn2c(C(=O)N[C@H]3C[C@H]3F)cnc12 [I-82]	TYK2 (Homo sapiens, UniProt P29597)	< 1 nM
CNc1cc(N2CCc3c2cccc3C23CC(CN4CC5(CCN(C(=O)c6ccc(Cl)c(N7CCC(=O)NC7=O)c6)CC5(F)F)C4)(C2)C3)nn2c(C(=O)N[C@@H]3C[C@@H]3F)cnc12 [I-897]	TYK2 (Homo sapiens, UniProt P29597)	< 10 nM
CNc1cc(N2CCc3c(-c4ccc(CN5CCC6(CCN(C(=O)c7ccc(Cl)c(N8CCC(=O)NC8=O)c7)CC6)C(F)(F)C5)cn4)cccc32)nn2c(C(=O)NC3CC3)cnc12 [I-57]	TYK2 (Homo sapiens, UniProt P29597)	< 10 nM
CNc1cc(N2CCc3c(-c4ncc(CN5CC6(CCN(C(=O)c7cc(N8CCC(=O)NC8=O)c(Cl)cn7)CC6(F)F)C5)cc4F)cc(F)cc32)nn2c(C(=O)N[C@@H]3CC[C@H]3OC)cnc12 [I-1149]	TYK2 (Homo sapiens, UniProt P29597)	< 1 nM
CNc1cc(N2CCc3c(-c4ncc(CN5CC6(CCN(C(=O)c7cc(C)c(Cl)c(N8CCC(=O)NC8=O)c7)CC6(F)F)C5)cc4F)cc(F)cc32)nn2c(C(=O)N[C@@H]3C[C@@H]3F)cnc12 [I-946]	TYK2 (Homo sapiens, UniProt P29597)	< 1 nM
CNc1cc(N2CCc3c(CN4CCC(N5CCC6(CCN(C(=O)c7ccc(Cl)c(N8CCC(=O)NC8=O)c7)CC6)C5)C(F)(F)C4)cccc32)nn2c(C(=O)N[C@@H]3C[C@@H]3F)cnc12 (some centres unmarked) [I-805]	TYK2 (Homo sapiens, UniProt P29597)	< 1 nM
CNc1cc(N2CCc3c(CC4CCC5(CC4)CCN(C4CCN(C(=O)c6ccc(Cl)c(N7CCC(=O)NC7=O)c6)CC4(F)F)CC5)cccc32)nn2c(C(=O)N[C@@H]3C[C@@H]3F)cnc12 (some centres unmarked) [I-800]	TYK2 (Homo sapiens, UniProt P29597)	> 100 nM
CNc1cc(N2CCc3c(-c4ccc(CN5CCC(N6CCC7(CC6)CN(c6cccc8c6n(C)c(=O)n8C6CCC(=O)NC6=O)C7)C(F)(F)C5)cn4)cccc32)nn2c(C(=O)N[C@@H]3C[C@@H]3F)cnc12 (some centres unmarked) [I-280]	TYK2 (Homo sapiens, UniProt P29597)	< 10 nM
CNc1cc(N2CC3(CCN(CCc4ccc5c(c4)n(C)c(=O)n5C4CCC(=O)NC4=O)CC3)c3ccccc32)nn2c(C(=O)NC3CC3)cnc12 (centres unmarked) [I-53]	TYK2 (Homo sapiens, UniProt P29597)	> 100 nM
CNc1cc(N2CCc3c(C#CCN4CC5(CCN(C(=O)c6ccc(Cl)c(N7CCC(=O)NC7=O)c6)CC5(F)F)C4)cccc32)nn2c(C(=O)N[C@@H]3C[C@@H]3F)cnc12 [I-241]	TYK2 (Homo sapiens, UniProt P29597)	< 10 nM
CNc1cc(N2CCc3c([C@@H](C)N4CC[C@H](N5CCC6(CCN(C(=O)c7cc(C)c(Cl)c(N8CCC(=O)NC8=O)c7)CC6)CC5)C(F)(F)C4)cccc32)nn2c(C(=O)N[C@@H]3CC[C@H]3OC)cnc12 [I-1128]	TYK2 (Homo sapiens, UniProt P29597)	< 1 nM
CNc1cc(N2CCc3c(-c4ccc(CN5CC6(CCN(C(=O)c7ccc(Cl)c(N8CCC(=O)NC8=O)c7)CC6(F)F)C5)cn4)cccc32)nn2c(C(=O)N[C@H]3C[C@@H](F)C3)cnc12 [I-883]	TYK2 (Homo sapiens, UniProt P29597)	< 1 nM
CNc1cc(N2CCc3c(-c4ccc(CN5CCC(N6CCN(c7ccc8c(c7F)n(C)c(=O)n8C7CCC(=O)NC7=O)CC6)C(F)(F)C5)cn4)cccc32)nn2c(C(=O)NC3CC3F)cnc12 (centres unmarked) [I-910]	TYK2 (Homo sapiens, UniProt P29597)	< 10 nM
CNc1cc(N2CCc3c(CCN4CCC5(CC4)CCN(C(=O)c4ccc(Cl)c(N6CCC(=O)NC6=O)c4)CC5)cccc32)nn2c(C(=O)N[C@@H]3C[C@@H]3F)cnc12 [I-895]	TYK2 (Homo sapiens, UniProt P29597)	> 100 nM
CNc1cc(N2CCc3c(C4CCCN(CC5CC6(C5)CN(c5ccc7c(c5)n(C)c(=O)n7C5CCC(=O)NC5=O)C6)C4)cccc32)nn2c(C(=O)NC3CC3)cnc12 (centres unmarked) [I-59]	TYK2 (Homo sapiens, UniProt P29597)	< 1 nM
